Target or test system: Human Nav1.8 (Homo sapiens)
Sequence (Q9Y5Y9 whole entry): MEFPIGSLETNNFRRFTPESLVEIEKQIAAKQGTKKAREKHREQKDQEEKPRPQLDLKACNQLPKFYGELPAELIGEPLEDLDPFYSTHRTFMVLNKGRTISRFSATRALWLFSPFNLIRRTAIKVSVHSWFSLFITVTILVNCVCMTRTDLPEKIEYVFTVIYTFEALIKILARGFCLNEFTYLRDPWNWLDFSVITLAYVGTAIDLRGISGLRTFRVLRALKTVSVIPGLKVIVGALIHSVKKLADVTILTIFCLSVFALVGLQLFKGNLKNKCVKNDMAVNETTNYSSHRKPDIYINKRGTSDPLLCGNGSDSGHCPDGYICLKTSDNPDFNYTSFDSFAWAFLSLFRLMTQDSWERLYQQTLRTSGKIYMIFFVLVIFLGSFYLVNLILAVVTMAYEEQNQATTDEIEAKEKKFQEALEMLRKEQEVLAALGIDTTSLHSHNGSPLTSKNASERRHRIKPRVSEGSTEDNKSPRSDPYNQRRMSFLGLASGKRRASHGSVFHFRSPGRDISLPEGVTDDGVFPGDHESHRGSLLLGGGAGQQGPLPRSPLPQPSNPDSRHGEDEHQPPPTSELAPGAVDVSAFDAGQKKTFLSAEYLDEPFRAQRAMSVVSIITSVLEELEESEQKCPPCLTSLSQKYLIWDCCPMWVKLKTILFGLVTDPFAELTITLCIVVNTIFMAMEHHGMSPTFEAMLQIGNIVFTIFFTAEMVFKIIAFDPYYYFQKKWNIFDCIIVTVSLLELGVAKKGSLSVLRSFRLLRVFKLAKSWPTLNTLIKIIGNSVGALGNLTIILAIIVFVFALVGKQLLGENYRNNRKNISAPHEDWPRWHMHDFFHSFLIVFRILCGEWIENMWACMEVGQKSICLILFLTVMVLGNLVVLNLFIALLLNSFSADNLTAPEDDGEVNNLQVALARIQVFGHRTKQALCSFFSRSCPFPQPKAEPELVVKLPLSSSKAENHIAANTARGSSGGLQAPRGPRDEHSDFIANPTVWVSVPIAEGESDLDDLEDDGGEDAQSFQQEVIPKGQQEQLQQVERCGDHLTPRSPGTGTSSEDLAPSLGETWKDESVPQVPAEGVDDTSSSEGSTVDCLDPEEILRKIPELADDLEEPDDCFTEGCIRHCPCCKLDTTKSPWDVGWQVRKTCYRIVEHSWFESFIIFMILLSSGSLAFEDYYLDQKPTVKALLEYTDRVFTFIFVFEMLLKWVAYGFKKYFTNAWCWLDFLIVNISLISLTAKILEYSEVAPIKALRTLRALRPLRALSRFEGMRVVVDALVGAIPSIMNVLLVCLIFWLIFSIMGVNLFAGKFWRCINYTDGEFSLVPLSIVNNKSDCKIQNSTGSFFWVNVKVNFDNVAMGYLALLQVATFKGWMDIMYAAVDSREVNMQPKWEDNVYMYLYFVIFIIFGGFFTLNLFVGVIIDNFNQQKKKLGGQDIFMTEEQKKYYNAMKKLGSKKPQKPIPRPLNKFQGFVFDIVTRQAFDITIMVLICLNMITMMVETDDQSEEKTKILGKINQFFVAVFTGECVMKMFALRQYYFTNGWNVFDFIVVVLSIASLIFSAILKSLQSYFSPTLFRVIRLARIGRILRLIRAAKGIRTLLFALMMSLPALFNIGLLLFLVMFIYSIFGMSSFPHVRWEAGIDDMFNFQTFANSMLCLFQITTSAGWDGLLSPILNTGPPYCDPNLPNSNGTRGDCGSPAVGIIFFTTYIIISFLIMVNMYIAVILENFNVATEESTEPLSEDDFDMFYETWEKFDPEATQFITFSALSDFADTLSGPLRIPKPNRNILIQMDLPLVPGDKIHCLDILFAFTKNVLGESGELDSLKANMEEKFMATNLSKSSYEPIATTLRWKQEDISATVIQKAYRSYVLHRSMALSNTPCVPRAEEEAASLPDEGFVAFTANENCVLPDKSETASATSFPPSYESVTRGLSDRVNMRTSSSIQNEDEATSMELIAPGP
Assay method text: VIPR Assay for Nav1.8 Compounds (FRET membrane potential, deltamethrin opener)
Assay context: HEK293 cells expressing Human Nav1.8; deltamethrin as opener; average of replicates
With a cut-off of 5 µM, any IC50 strictly below it is called YES; any IC50 meeting it or above is called NO.

A selection of reference data follows.
{"columns": ["Compound", "Target or test system", "Discrete label"],
 "data": [
  ["CCn1nccc1C(=O)Nc1cnc(-c2ccccc2OC(F)(F)F)c(N)n1 [Example 4]", "Human Nav1.8 (Homo sapiens)", "NO"],
  ["Cn1nccc1C(=O)Nc1cnc(-c2cc(F)ccc2OC(F)(F)F)c(N)n1 [Example 15]", "Human Nav1.8 (Homo sapiens)", "NO"],
  ["CCOc1ccc(OC(F)(F)F)c(-c2ncc(NC(=O)c3conc3C)nc2N)c1 [Example 17]", "Human Nav1.8 (Homo sapiens)", "YES"]
]}

Query :: Please determine if COCc1oncc1C(=O)Nc1cnc(-c2ccccc2OC(F)(F)F)c(N)n1 [Example 9] is below 5 µM in terms of IC50.
Result :: NO

Query :: Say whether its IC50 is strictly beneath 5 µM. Entry: Cn1nccc1C(=O)Nc1cnc(-c2cc(Cl)ccc2OC(F)(F)F)c(N)n1 [Example 11]
Result :: NO

Query :: In plain terms, does CC(C)n1nccc1C(=O)Nc1cnc(-c2ccccc2OC(F)(F)F)c(N)n1 [Example 5] come in under 5 µM for IC50?
Result :: NO

Query :: Is it true that IC50 reported for Cc1nocc1C(=O)Nc1cnc(-c2cc(Cl)ccc2OC(F)(F)F)c(N)n1 [Example 3] is less than 5 µM?
Result :: YES

Query :: Field: below-cutoff. Rule: recorded IC50 strictly less than 5 µM. Subject: Cc1nocc1C(=O)Nc1cnc(-c2cc(F)ccc2OC(F)(F)F)c(N)n1 [Example 13]
Result :: YES

Query :: I'd appreciate it if you could check whether COCc1nocc1C(=O)Nc1cnc(-c2cc(F)ccc2C(F)(F)F)c(N)n1 [Example 8] has IC50 smaller than 5 µM.
Result :: NO

Query :: A record lists Cc1nocc1C(=O)Nc1cnc(-c2ccccc2OC(F)(F)F)c(N)n1 [Example 1] . Is its IC50 below 5 µM?
Result :: YES

Query :: I'd appreciate it if you could check whether CCOc1ccc(OC(F)(F)F)c(-c2ncc(NC(=O)c3ccnn3C)nc2N)c1 [Example 16] has IC50 smaller than 5 µM.
Result :: NO

Query :: Please state whether IC50 is below 5 µM for Cc1nocc1C(=O)Nc1cnc(-c2cc(F)ccc2C(F)(F)F)c(N)n1 [Example 10]
Result :: YES

Query :: Lab note: confirm whether the reported IC50 for this compound is below 5 µM, equality not counting. compound: COCc1nocc1C(=O)Nc1cnc(-c2ccccc2OC(F)(F)F)c(N)n1 [Example 6]
Result :: NO

Query :: Consider Nc1nc(NC(=O)c2conc2C(F)(F)F)cnc1-c1ccccc1OC(F)(F)F [Example 12] . Does its IC50 lie strictly below 5 µM?
Result :: YES

Query :: Take the compound COCc1nocc1C(=O)Nc1cnc(-c2cc(Cl)ccc2OC(F)(F)F)c(N)n1 [Example 7] and say whether its IC50 is less than 5 µM.
Result :: YES

Query :: Take the compound Cc1nocc1C(=O)Nc1cnc(-c2ccccc2C(F)(F)F)c(N)n1 [Example 2] and say whether its IC50 is less than 5 µM.
Result :: NO

Query :: Identify whether the compound Nc1nc(NC(=O)c2conc2C(F)(F)F)cnc1-c1cc(F)ccc1C(F)(F)F [Example 14] records IC50 below 5 µM.
Result :: YES
